# measuredOn: T1, human ST2L extracellular domain with C-terminal His6 tag (human, UniProt Q01638 19-328)
# T1 construct: also called huST2L-ECD; ST2L-ECD
# T1 sequence: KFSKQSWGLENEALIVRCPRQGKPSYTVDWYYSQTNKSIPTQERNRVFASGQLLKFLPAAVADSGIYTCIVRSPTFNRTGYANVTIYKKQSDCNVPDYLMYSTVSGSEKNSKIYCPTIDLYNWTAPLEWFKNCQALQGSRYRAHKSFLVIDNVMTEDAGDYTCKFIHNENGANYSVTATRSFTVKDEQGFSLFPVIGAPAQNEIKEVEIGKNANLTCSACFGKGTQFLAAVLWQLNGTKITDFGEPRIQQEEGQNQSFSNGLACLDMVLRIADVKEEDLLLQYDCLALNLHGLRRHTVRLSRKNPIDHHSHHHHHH
# assayDetails: SPR, mAb captured, ST2L-ECD in solution

- binder: "C2521 (antibody, V domains shown, Mouse hybridoma antibody; also called C2521A) VH: QIQLQQSGPELVRPGTSVKISCKASGYTFLTYWMNWVKQRPGQGLEWIGQIFPASGSTYYNEMFKDKATLTVDTSSSTAYMQLSSLTSEDTAVYFCARSENIYYINFQYYFAYWGQGTTLTVSS VL: ILLTQSPAILSVSPGERVSFSCRASQNIGTRMHWYQQRTNGSPRLLIKYASESISGIPSRFSGSGSGTDFTLTISSVESEDIADYYCQQSNTWPFTFGSGTKLEIK"
  kon [M⁻¹ s⁻¹]: 618000
- binder: "C2519 (antibody, V domains shown, Mouse hybridoma antibody; also called C2519A) VH: EFQLQQSGPELVKPGASVKISCKASGYSFTDYNMNWVKQSHGKSLEWIGNINPYYGSTTYNQKFKGKATLTVDKSSNTAYMHLNSLTSEDSAVYYCAREGDTYLAWFAYWGQGTLVTVSA VL: DVLMTQTPLSLPVSLGDQASISCRSSQSIVYSNGNTYLEWYLQKPGQSPKLLIYKVSNRFSGVPDRFSGSGSGTDFTLKISRVEAEDLGVYYCFQGSHVPPTFGGGTKLEIK"
  kon [M⁻¹ s⁻¹]: 483000
- binder: "ST2M48 (antibody, V domains shown, Phage-derived Fab converted to IgG) VH: EVQLVQSGAEVKKPGESLKISCKGSGYSFTSYWIGWVRQMPGKGLEWMGIIYPGDSYTRYSPSFQGQVTISADKSISTAYLQWSSLKASDTAMYYCARLSGRFDYWGQGTLVTVSS VL: EIVLTQSPATLSLSPGERATLSCRASQSVRDALAWYQQKPGQAPRLLIYFASNRATGIPARFSGSGSGTDFTLTISSLEPEDFAVYYCQQFNTWPITFGQGTKVEIK"
  kon [M⁻¹ s⁻¹]: "1.32e+06"
